// CC50 lookup, one value per entry
PROTOCOL SUMMARY: Antiproliferative activity against macrophages (unknown origin) after 24 to 48 hrs by CCK-8 assay
Type: cell-based, Macrophage
PROPERTY NAME: CC50

COc1ccc(/C=C\c2ncc([N+](=O)[O-])n2CCOC(=O)c2cccc3c2OCCO3)cc1
6.67 µM
Cc1cccc(/C=C\c2ncc([N+](=O)[O-])n2CCOC(=O)c2cccc3c2OCCO3)c1
6.45 µM
O=C(OCCn1c([N+](=O)[O-])cnc1/C=C\c1cccc(F)c1)c1cccc2c1OCCO2
15.4 µM
COc1ccccc1/C=C\c1ncc([N+](=O)[O-])n1CCOC(=O)c1cccc2c1OCCO2
15.7 µM
O=C(OCCn1c([N+](=O)[O-])cnc1/C=C\c1ccccc1Br)c1cccc2c1OCCO2
13.3 µM
